From: PubChem BioAssay (NCI)

Task for the reader: assign each of the following molecules its reported TGI.
Test system: DU-145 prostate
EXPERIMENTAL PROTOCOL: NCI tumour cell line growth inhibition, 48 h
Where a SMILES comes first, the peptide text is derived from it. [ ]: non-standard residue; d: D form. Ac5c = NC1(C(=O)O)CCCC1

Specify reported TGI for the molecule shown: O=c1[nH]c2cc(Cl)ccc2nc1/C(=N/Nc1ccccc1)C(O)c1ccco1 (stereo not given)
> 100 µM

Specify reported TGI for the molecule shown: CNCCCNc1c2cc(OC)ccc2nc2cccc([N+](=O)[O-])c12
14.8 µM

Specify reported TGI for the molecule shown: NCC(=O)NC1(C(=O)O)CCCC1 (H-Gly-[Ac5c]-OH)
> 100 µM

Specify reported TGI for the molecule shown: COc1ccc(N2C(=O)C3c4[nH]c5ccc(OC)cc5c4C4CCC(C(C)C)CC4C3C2=O)cc1 (stereo not given)
> 100 µM

Specify reported TGI for the molecule shown: COc1ccc2c(c1)CC[C@@H]1[C@@H]2CC[C@]2(C)C(c3ccsc3)=C(/C=C/C(=O)c3ccccc3)C[C@@H]12
> 100 µM

* * *

Task for the reader: assign each of the following molecules its reported GI50.
System: HCT-116 colon
EXPERIMENTAL PROTOCOL: NCI tumour cell line growth inhibition, 48 h

Specify reported GI50 for the molecule shown: O=C(NC1CCCCC1)NS(=O)(=O)c1ccc(-n2nc3c(c2-c2cccs2)Cc2ccccc2-3)cc1
31.7 µM

Specify reported GI50 for the molecule shown: COc1ccc2c(c1)CC[C@@H]1[C@@H]2CC[C@]2(C)C(c3ccsc3)=C(/C=C/C(=O)c3ccccc3)C[C@@H]12
> 100 µM

Specify reported GI50 for the molecule shown: CC(C)(C)CC(C)(C)c1ccc(OCCSC(=N)N)cc1
1.38 µM

Specify reported GI50 for the molecule shown: C=C(C)[C@@H]1C/C=C(\COC(=O)[C@H](OC(C)=O)C(NC(=O)c2ccccc2)c2ccccc2)CC[C@H]2O[C@]2(C)CC/C=C(\C)CC1 (some centres not stated)
12.3 µM

Specify reported GI50 for the molecule shown: Cc1cc(I)cc(CN(C)CCN(C)C)c1O
24.9 µM

Specify reported GI50 for the molecule shown: COc1ccc(-c2cnoc2-c2ccc(OC)cc2O)cc1
2.82 µM

Specify reported GI50 for the molecule shown: CN1CCN(Cc2ccc(NC(=O)c3nc4ccc5[nH]ncc5c4c4c3CCCC4)cc2C(F)(F)F)CC1
0.855 µM

* * *

Test system: U251 CNS
EXPERIMENTAL PROTOCOL: NCI tumour cell line growth inhibition, 48 h
METRIC: TGI

Provide TGI, system U251 CNS, entry CC(C)=CCc1c(O)c(CC2=C(O)C(C)=C(O)C(CC=C(C)C)(C(=O)C(C)C)C2=O)c(O)c(C(=O)C(C)C)c1O (stereo not given)
> 40.2 µM

Provide TGI, system U251 CNS, entry Cc1noc(NS(=O)(=O)c2ccc(NC(=O)c3ccc4nc5ccccc5c(Nc5ccc(S(=O)(=O)Nc6onc(C)c6C)cc5)c4c3)cc2)c1C
> 100 µM

Provide TGI, system U251 CNS, entry CCP(=S)(CC)CCl
> 100 µM

Provide TGI, system U251 CNS, entry O=C1Nc2ccccc2S/C1=C\c1ccc(C(F)(F)F)cc1
> 100 µM

Provide TGI, system U251 CNS, entry C=C(C)C[C@H](Sc1nc2ccccc2s1)[C@H](C)O
> 100 µM
